Below, each entry is listed with its recorded log10 of Solubility.
Assay: Solubility of esters, absorbance of saturated solutions at 262 nm
Format: physicochemical
Conditions: saturated solution, pH 7 (50 mM phosphate buffer), room temperature
Scale type: logarithmic (base 10). Underlying Solubility unit: mM.

Examples with their reported log10 of Solubility follow.
>>> observed_value("CC(C)Cc1ccc(C(C)C(=O)OCCCCS(=O)(=O)O)cc1 (stereo not shown)")
3.05
>>> observed_value("CCCCCCCCOC(=O)C(C)Cl (stereo not shown)")
0.08
>>> observed_value("CC(C)Cc1ccc(C(C)C(=O)OCCN(C)C)cc1 (stereo not shown) [reference compound]")
1.00
>>> observed_value("CC(C)Cc1ccc(C(C)C(=O)OCC(F)(F)F)cc1 (stereo not shown)")
-0.40
>>> observed_value("CC(C)Cc1ccc(C(C)C(=O)OCC[N+](C)(C)C)cc1 (stereo not shown)")
3.34

GET /values?readout=log10 of Solubility&item= COCCOC(=O)C(C)c1ccc(CC(C)C)cc1 (stereo not shown) [Methoxyethyl ester of ibuprofen, reference compound]
-0.74

For the compound COc1ccc2cc(C(C)C(=O)OCCC[N+](C)(C)C)ccc2c1 (stereo not shown) , what log10 of Solubility is on record?
3.21
